assay: AUC (0 to 24 hrs) in P-gp and BCRP knockout mouse at 2.5 mg/kg, po by LC-MS/MS method; format: ADME, organism-based; parameters: time < 24 hr, dose 2.5 mg/kg, route oral; settings: in vivo
The reader will find reported AUC(0-t) at 24 h values listed item by item below.
Entry format: amount then unit.

Smiles Record	AUC(0-t) at 24 h
C[C@@H]1CC(=O)Nc2ncnc(N3CCC(c4nc(C5CCOCC5)cn4CCN4CCCC4)CC3)c21	501 ng·h/mL

Query block: # AUC(0-t) at 24 h lookup, item "C[C@@H]1CC(=O)Nc2ncnc(N3CCC(c4nc(CCC(F)(F)F)cn4CCN4CCCC4)CC3)c21"
Result block: 359 ng·h/mL

* * *

experiment: Inhibition of human PKA measured at apparent ATP Km level
# reported pIC50; entries follow
pIC50 is defined as minus the log10 of a concentration measured in mol/L.

Take a look at these entries with their results.
Smiles Record	pIC50
C[C@@H]1CC(=O)Nc2ncnc(N3CCC(c4nc(CCC(F)(F)F)cn4CCN4CCCC4)CC3)c21	7.08
C[C@@H]1CC(=O)Nc2ncnc(N3CCC(c4nc(C5CCOCC5)cn4CCN4CCCC4)CC3)c21	6.39
C[C@@H]1CC(=O)Nc2ncnc(N3CCC(c4nc(-c5ccc(F)c(C(F)(F)F)c5)cn4CCN4CCCC4)CC3)c21	6.19

Now look at this entry.
Query block: Need pIC50 of "C[C@@H]1CC(=O)Nc2ncnc(N3CCC(c4nc(C(F)(F)F)cn4CCN4CCCC4)CC3)c21" , thanks.
Result block: 6.91

* * *

experiment: Half life in Sprague-Dawley rat at 10 mg/kg, iv by LC-MS/MS method; format: ADME, organism-based; conditions: in vivo
Below is a list of entries, each paired with its recorded half-life value.
Give the value in h but do not write h after it.

Smiles Record	half-life (h)
C[C@@H]1CC(=O)Nc2ncnc(N3CCC(c4nc(CCC(F)(F)F)cn4CCN4CCCC4)CC3)c21	2.3
C[C@@H]1CC(=O)Nc2ncnc(N3CCC(c4nc(C(F)(F)F)cn4CCN4CCCC4)CC3)c21	3

Query block: Requested read-out: half-life. Entry: "C[C@@H]1CC(=O)Nc2ncnc(N3CCC(c4nc(C5CCOCC5)cn4CCN4CCCC4)CC3)c21"
Result block: 8.6
